- Test system: HOSE/IRIS cells
- assayRemarks: MTT cell viability after cisplatin
- Format: cell-based, human
- conditionContext: cisplatin 48 h
pIC50: −log10 of the molar value.
readoutName: pIC50

N.N.[Cl][Pt][Cl] [cisplatin] = ~4.12

----------
- Test system: HOSE/AKT1 cells
- assayRemarks: MTT cell viability after cisplatin
- Type: cell-based, human
- conditionContext: HOSE/AKT1, cisplatin 48 h
pIC50: −log10 of the molar value.
readoutName: pIC50

N.N.[Cl][Pt][Cl] [cisplatin] = ~4.12

----------
- System: HOSE/AKT2 cells
- assayRemarks: MTT cell viability after cisplatin
- Assay type: cell-based, human
- conditionContext: HOSE/AKT2, cisplatin 48 h
pIC50: −log10 of the molar value.
readoutName: pIC50

N.N.[Cl][Pt][Cl] [cisplatin] = ~4.12
